- measurement target: Fuc(a1-4)GlcNAc
- procedure details: glycan array binding signal (z-score within array); higher = stronger binding
- settings: glycan notation: IUPAC condensed, linker removed
Shown is part of a subset that was picked to be rich in the strongest signals.
measured metric: glycan array binding signal (z-score)
Give the value as a plain number.

Requested field: glycan array binding signal (z-score). Item: BC2LB (Burholderia cenocepacia), B4EH85_BURCJ (protein) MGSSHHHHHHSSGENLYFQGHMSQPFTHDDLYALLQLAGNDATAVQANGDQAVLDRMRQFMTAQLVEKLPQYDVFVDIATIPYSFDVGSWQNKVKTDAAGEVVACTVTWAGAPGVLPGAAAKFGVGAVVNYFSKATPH
2.88
